- ASSAYED_TARGET: long isoform of human D2 receptor (Homo sapiens, UniProt P14416)
- Sequence (P14416 whole entry, canonical isoform): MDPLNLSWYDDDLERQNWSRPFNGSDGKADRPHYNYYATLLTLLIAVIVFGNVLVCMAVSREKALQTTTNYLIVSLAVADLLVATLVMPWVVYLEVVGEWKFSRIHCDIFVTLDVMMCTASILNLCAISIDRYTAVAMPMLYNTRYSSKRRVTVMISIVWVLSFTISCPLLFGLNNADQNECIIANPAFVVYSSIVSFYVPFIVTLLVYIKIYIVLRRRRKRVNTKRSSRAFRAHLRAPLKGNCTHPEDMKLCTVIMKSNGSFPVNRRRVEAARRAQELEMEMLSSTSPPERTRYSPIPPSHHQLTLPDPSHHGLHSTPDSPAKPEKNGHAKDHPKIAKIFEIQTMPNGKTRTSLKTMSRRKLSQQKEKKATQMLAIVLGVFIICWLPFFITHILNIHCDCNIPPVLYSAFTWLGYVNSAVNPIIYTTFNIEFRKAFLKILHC
- ASSAY_INFO: cAMP HTRF Agonist Assay (DRD2L PathHunter CHO-K1 cells, forskolin-stimulated)
Listed here: items and their measured IC50.
ASSAY_ENDPOINT: IC50

| SMILES_STRING | ASSAYED_TARGET | ASSAY_ENDPOINT | OBSERVED_RESULT |
| --- | --- | --- | --- |
| O=C1CCc2ccc(OCCCCN3CCc4sccc4C3)cc2N1 | long isoform of human D2 receptor (Homo sapiens, UniProt P14416) | IC50 | < 0.01 µM |
| COc1ccc2c(c1)CCN(CCCCOc1ccc3cccc(O)c3n1)C2 | long isoform of human D2 receptor (Homo sapiens, UniProt P14416) | IC50 | > 10 µM |
| O=C1CCc2ccc(OCCCCN3CCc4nn(-c5ccccc5)cc4C3)nc2N1 | long isoform of human D2 receptor (Homo sapiens, UniProt P14416) | IC50 | > 10 µM |
| Oc1cccc2ccc(OCCCCN3CCN(c4ccccn4)CC3)nc12 | long isoform of human D2 receptor (Homo sapiens, UniProt P14416) | IC50 | < 0.01 µM |
| N#Cc1ccc2c(c1)CCN(CCCCOc1ccc3ccc(=O)[nH]c3n1)C2 | long isoform of human D2 receptor (Homo sapiens, UniProt P14416) | IC50 | > 10 µM |
| O=C1CCc2ccc(OCCCCN3CCc4ncsc4C3)cc2N1 | long isoform of human D2 receptor (Homo sapiens, UniProt P14416) | IC50 | 0.01 to 0.1 µM |
| O=C1CCc2ccc(OCCCCN3CCc4nn(-c5ccccc5F)cc4C3)cc2N1 | long isoform of human D2 receptor (Homo sapiens, UniProt P14416) | IC50 | > 10 µM |
| CC(=O)Nc1cccc(OCCCCN2CCc3ccccc3C2)n1 | long isoform of human D2 receptor (Homo sapiens, UniProt P14416) | IC50 | > 10 µM |
| O=C1CCc2ccc(OCCCCN3CCc4ccsc4C3)cc2N1 | long isoform of human D2 receptor (Homo sapiens, UniProt P14416) | IC50 | < 0.01 µM |
| O=C1NCCc2ccc(OCCCCN3CCc4c(Cl)cccc4C3)nc2N1 | long isoform of human D2 receptor (Homo sapiens, UniProt P14416) | IC50 | < 0.01 µM |
| N#Cc1cccc2c1CN(CCCCOc1ccc3c(n1)NC(=O)CC3)CC2 | long isoform of human D2 receptor (Homo sapiens, UniProt P14416) | IC50 | > 10 µM |
| COc1ccc(-n2cc3c(n2)CCN(CCCCOc2ccc4c(c2)NC(=O)CC4)C3)cc1 | long isoform of human D2 receptor (Homo sapiens, UniProt P14416) | IC50 | > 10 µM |
